Target: Intestinal-type alkaline phosphatase (Homo sapiens) (UniProt P09923)
Sequence (P09923 whole entry, looked up): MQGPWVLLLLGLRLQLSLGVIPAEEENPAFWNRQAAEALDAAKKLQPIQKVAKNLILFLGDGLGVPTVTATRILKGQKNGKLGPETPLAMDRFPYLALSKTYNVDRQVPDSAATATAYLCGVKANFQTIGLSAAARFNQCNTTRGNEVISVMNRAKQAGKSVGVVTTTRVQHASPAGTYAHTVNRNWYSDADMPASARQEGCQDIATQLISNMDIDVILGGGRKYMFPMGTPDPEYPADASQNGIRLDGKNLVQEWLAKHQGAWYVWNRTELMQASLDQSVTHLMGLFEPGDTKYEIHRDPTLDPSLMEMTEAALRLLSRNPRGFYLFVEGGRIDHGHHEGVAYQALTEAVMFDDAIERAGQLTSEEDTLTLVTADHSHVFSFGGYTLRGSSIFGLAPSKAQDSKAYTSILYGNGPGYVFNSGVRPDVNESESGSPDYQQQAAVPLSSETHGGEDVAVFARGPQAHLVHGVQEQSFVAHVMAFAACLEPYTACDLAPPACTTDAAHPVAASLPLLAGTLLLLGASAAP
Test: human IAP activators, primary screen, biochemical, luminescence, uHTS (AID 2524)
Conditions: purified human IAP, CDP-Star luminescence, 30 min; at 10 µM; active compounds read high; 1 = vehicle-only enzyme, 0 = enzyme-free background
The whole screen tested about 330,000 compounds, of which about 540 (0.16%) were called active. Shown is part of a subset that was picked to be rich in actives.
The entries below come with measured activation factor values attached.

- Compound: "CC(C)CN(CC(C)C)CC(O)CN(c1ccccc1)S(=O)(=O)c1ccccc1[N+](=O)[O-] (stereo unspecified)"
  activation factor: "0.882 (inactive)"
- Compound: "COc1ccccc1N(C)S(=O)(=O)c1ccc(C(=O)N2CCC(C(N)=O)CC2)cc1"
  activation factor: "0.887 (inactive)"
- Compound: "CN(C)c1cccc(C(=O)N2CCC(n3nccc3NC(=O)C3CCOC3)CC2)c1 (stereo unspecified)"
  activation factor: "1.28 (inactive)"
- Compound: "OC(c1nc2ccc(F)cc2[nH]1)C(O)c1nc2ccc(F)cc2[nH]1 (stereo unspecified)"
  activation factor: "3.62 (active)"
- Compound: "O=C1COc2ccc(C(=O)CSc3ccc(Br)cc3)cc2N1"
  activation factor: "1.06 (inactive)"

**Query** Annotate the compound `O=C(N/N=C/c1ccc(Br)o1)c1cncc(Br)c1` with its measured activation factor.
**Result** 1.05 (inactive)

**Query** Write down activation factor measured for item `O=C(CCCCO)c1ccc(O)c(Cl)c1`
**Result** 1.08 (inactive)

**Query** Supply reported activation factor belonging to this compound: `COC(C[C@@H](O)[C@H](C)[C@H](O)COCc1ccccc1)OC`
**Result** 0.977 (inactive)

**Query** State, in one line, measured activation factor of `O=C(CNCCC1=CCCCC1)Nc1ccccc1N1CCCCCC1`
**Result** 1.04 (inactive)

**Query** Look up activation factor of `O=C(O)CSCc1ccc(C(=O)O)o1` and report it.
**Result** 0.943 (inactive)

**Query** Please report the measured activation factor for CCCOCC(O)CC(CC)C(=O)NNC(=S)Nc1ccccc1 (stereo unspecified)
**Result** 2.11 (active)
